# Test system: DMS-273
# Experimental protocol: NCI tumour cell line growth inhibition, 48 h
Active and inactive are the calls of the source. Cut-off read from the data, not from the text of the source: active = GI50 up to about 1.1 µM and inactive = higher.
Possible outcomes: label 1 (active), label 0 (inactive)

{"Compound": "Nc1ncnc2c1ncn2C1(CO)OC(CO)C(O)C1O (configuration not stated)", "Class": "label 0"}
{"Compound": "CCCN(CCC)C1CC(n2cc(C)c(=O)[nH]c2=O)OC1CO (configuration not stated)", "Class": "label 0"}
{"Compound": "N#CC1(C#N)C(c2ccccc2)C=CC12OCCCO2 (configuration not stated)", "Class": "label 0"}
{"Compound": "Cc1ccc(-c2nc3ccccc3c(=O)n2NCC2(O)OCC(O)C(O)C2O)cc1 (configuration not stated)", "Class": "label 0"}
{"Compound": "N#CC(C#N)=C1NN=C(Cl)c2ccccc21", "Class": "label 0"}
{"Compound": "O=C1C2Nc3ccccc3SC2C(=O)N1c1ccc(Br)cc1 (configuration not stated)", "Class": "label 0"}
{"Compound": "COc1ccc2oc(-c3cc4cc(OC)ccc4o3)cc2c1", "Class": "label 0"}
{"Compound": "COc1cc(/C=C\\c2ccncc2)cc(OC)c1OC", "Class": "label 0"}
{"Compound": "COc1cccc2c1C(CO)N1C(C#N)C3CC(C(=O)O)C(C1C2)N3C (configuration not stated)", "Class": "label 0"}
{"Compound": "OCC(O)C(O)C(O)c1nnn[nH]1 (configuration not stated)", "Class": "label 0"}
{"Compound": "Cc1cc2c(=O)cc(-c3ccc(C(=O)O)cc3)oc2c(C(N)=O)c1C", "Class": "label 0"}
{"Compound": "CC(C)(C)c1ccc(Oc2ccc(C#N)c(C#N)c2)c(C(C)(C)C)c1", "Class": "label 0"}
{"Compound": "O=S1(=O)OCCOS(=O)(=O)C1I", "Class": "label 0"}
{"Compound": "COc1ccc(C2ON(c3ccccc3)CC=C2C)cc1 (configuration not stated)", "Class": "label 0"}
{"Compound": "NC(=S)NNc1c([N+](=O)[O-])cnn(-c2ccccc2)c1=O", "Class": "label 0"}
{"Compound": "O=C(c1cc(O)ccc1O)c1ccccc1C(Cl)(Cl)Cl", "Class": "label 0"}
{"Compound": "CCN(CC)c1ccc(/N=N/c2ccc([N+](=O)[O-])cc2OC(=O)/C=C/c2ccccc2)c(OC(=O)/C=C/c2ccccc2)c1", "Class": "label 0"}
{"Compound": "CC(C)(C)C1CCP(=O)(c2ccccc2)CC1 (configuration not stated)", "Class": "label 0"}
{"Compound": "C[C@H]1NC(=O)C2CCCCN2C(=O)CN(C)C(=O)CNC(=O)C2CCCCN2C(=O)[C@@H](NC(=O)c2nc3ccccc3cc2O)[C@@H](C)NC(=O)C2CCCCN2C(=O)CN(C)C(=O)CNC(=O)[C@@H]2CCCCN2C(=O)C1NC(=O)c1nc2ccccc2cc1O (some centres not stated)", "Class": "label 1"}
{"Compound": "CCCCC(C(=O)CCC(=O)Nc1ccc(Cl)cc1)C(=O)C(C)C (configuration not stated)", "Class": "label 0"}
{"Compound": "C[n+]1cccc(NC(=O)c2ccc(NC(=O)C34CCC(C(=O)Nc5ccc(C(=O)Nc6ccc[n+](C)c6)cc5)(CC3)CC4)cc2)c1", "Class": "label 0"}
{"Compound": "COc1ccc(/C=[N+](\\[O-])[C@H](COCc2ccccc2)c2ccccc2)cc1", "Class": "label 0"}
{"Compound": "OCC(O)C(O)C(O)c1nn(-c2ccc(Cl)cc2)c2nc3cc(Cl)c(Cl)cc3nc12 (configuration not stated)", "Class": "label 0"}
{"Compound": "Cc1cccc(C)c1NC(=O)C(=O)C1C(=O)NC(=O)NC1=O", "Class": "label 0"}
{"Compound": "Cc1ccc(NC(=O)c2cccc([N+](=O)[O-])c2O)c([N+](=O)[O-])c1", "Class": "label 0"}
{"Compound": "COc1cccc(NC(=O)CC(=O)N2N=C(N(CCC#N)c3ccc(Cl)cc3)CC2c2ccccc2)c1 (configuration not stated)", "Class": "label 0"}
{"Compound": "Cc1ccc(NC(=O)CC2Sc3ccccc3NC2=O)c(C)c1 (configuration not stated)", "Class": "label 0"}
{"Compound": "O=C(O)/C=C/c1c[nH]cn1", "Class": "label 0"}
{"Compound": "CCC1CN2CCC1CC2 (configuration not stated)", "Class": "label 0"}
{"Compound": "CC(=O)OC(=O)O/C=C\\CCl", "Class": "label 0"}
{"Compound": "CCO/S(=N/S(=O)(=O)c1ccccc1)c1ccccc1[N+](=O)[O-] (configuration not stated)", "Class": "label 0"}
{"Compound": "O=C1OC(c2ccccc2)C2CC3CC4(CCC3CN12)OCCO4 (configuration not stated)", "Class": "label 0"}
{"Compound": "CCOC(=O)NC(=O)c1cn(C2CCCCC2)c(=O)[nH]c1=O", "Class": "label 0"}
{"Compound": "CC(C)CCC1CC2C(=O)N(c3ccccc3)C(=O)C2c2[nH]c3ccccc3c21 (configuration not stated)", "Class": "label 1"}
{"Compound": "Cc1ccc(NC(=O)CCc2nnc3s/c(=C\\c4cccc([N+](=O)[O-])c4)c(=O)n23)cc1", "Class": "label 0"}
{"Compound": "COc1ccc2c3ccc4c(c3n(C)c2c1)C(=O)c1ccccc1C4=O", "Class": "label 0"}
{"Compound": "C/C(CC(=O)Nc1ccc(Cl)c(Cl)c1)=N/NC(=O)C[n+]1ccccc1", "Class": "label 0"}
